Below are pIC50 measurements against PDE1A (Homo sapiens, UniProt P54750) drawn from the literature.
pIC50: −log10 of the molar value.

{"sample_smiles": "CC(=O)c1ccccc1N1CC(c2nc3c(cnn3C3CCCCC3)c(=O)[nH]2)C1", "pIC50": "6.30 to 7.00"}
{"sample_smiles": "CC[C@@]12C=C(c3nsc(=O)[nH]3)n3c4c(c5ccccc53)CCN(CCC1)[C@H]42", "pIC50": "< 4.00"}
{"sample_smiles": "CCCc1nn(C)c2c(=O)[nH]c(N(Cc3cccc(N4CCN(C)CC4)c3)CC(C)C)nc12", "pIC50": "> 7.00"}

---

Below are IC50 measurements against PDE1A (Homo sapiens, UniProt P54750) drawn from the literature.
readout_kind: IC50

{"compound": "CC[C@@]12C=C(c3noc(-c4cccs4)n3)n3c4c(c5ccccc53)CCN(CCC1)[C@H]42", "measurement": "> 100000 nM"}
{"compound": "COc1cccc(C(=O)N2CCCC(c3nc4c(cnn4C4CCCCC4)c(=O)[nH]3)C2)c1 (stereo not shown)", "measurement": "101 to 500 nM"}
{"compound": "CCCc1nn(C)c2c(=O)[nH]c(NCc3ccc(F)cc3)nc12", "measurement": "> 500 nM"}
{"compound": "COc1ccc(Cn2c(C)cn3c(C4(C)CNC(=O)C4)ncc3c2=O)cc1 (stereo not shown)", "measurement": "236 nM"}
{"compound": "CCCc1nn(C)c2c(=O)[nH]c(NCc3nn(-c4ccccc4)nc3C)nc12", "measurement": "< 100 nM"}
{"compound": "CN(Cc1ccc(F)cc1)c1nc2c(C3CCCC3)nn(C)c2c(=O)[nH]1", "measurement": "< 100 nM"}
{"compound": "Nc1cc(N2CC(c3nc4c(cnn4C4CCCCC4)c(=O)[nH]3)C2)ccc1[N+](=O)[O-]", "measurement": "1 to 100 nM"}
{"compound": "CC[C@@]12C=C(c3nc(C)no3)n3c4c(c5ccccc53)CCN(CCC1)[C@H]42", "measurement": "1000 to 20000 nM"}
{"compound": "CCOc1ncccc1-c1cc(NCc2ncccn2)c2c(C(C)C)nn(C)c2n1", "measurement": "50 nM"}
{"compound": "CCCCn1c(=O)c2nnc(C3(C)CC3)n2c2ncc(C)cc21", "measurement": "11.6 nM"}

---

Below are IC50 measurements against UniProt P54750 drawn from the literature.

{"molecule": "Cc1nn(C2CCCCC2)c2nc(C3CN(C(=O)c4ccccc4)C3)[nH]c(=O)c12", "IC50": "101 to 500 nM"}
{"molecule": "Cn1c(Cc2ccc(-c3ccncn3)cc2)cn2c(C3CCOCC3)ncc2c1=O", "IC50": "68 nM"}
{"molecule": "CCCc1nn(C)c2c(=O)[nH]c(NCc3ccc(Cl)c(Cl)c3)nc12", "IC50": "101 to 500 nM"}
{"molecule": "CCCc1nn(C)c2c(=O)[nH]c(NCc3cccc(N4CCCC4)c3)nc12", "IC50": "101 to 500 nM"}
{"molecule": "Cc1nn2c(C3CCOCC3)ncc2c(=O)n1Cc1ccccc1F", "IC50": "54 nM"}
{"molecule": "O=C(NCc1ccc(Cl)c(Cl)c1)N1CC(c2nc3c(cnn3C3CCCCC3)c(=O)[nH]2)C1", "IC50": "1 to 100 nM"}
{"molecule": "CCC(C)CN(Cc1cccc(-n2cncn2)c1)c1nc2c(C(C)(C)C)nn(C)c2c(=O)[nH]1 (centres unmarked)", "IC50": "< 100 nM"}
{"molecule": "Cn1nc(C2CCCC2)c2nc(N3CCCC3c3ccccc3)[nH]c(=O)c21 (centres unmarked)", "IC50": "< 100 nM"}
{"molecule": "CC(C)(C)COC(=O)N1CC(c2nc3c(cnn3C3CCCCC3)c(=O)[nH]2)C1", "IC50": "101 to 500 nM"}
{"molecule": "Cc1nn(C2CCCCC2)c2nc(C3CCCN(C(=O)c4cccs4)C3)[nH]c(=O)c12 (centres unmarked)", "IC50": "1000 to 1500 nM"}
{"molecule": "COc1ccccc1NC(=O)N1CCCC(c2nc3c(c(C)nn3C3CCCCC3)c(=O)[nH]2)C1 (centres unmarked)", "IC50": "1000 to 1500 nM"}
